Origin of the recorded values: paper PMC9866367

assay: In vivo pharmacokinetic analysis in mice; parameters: species or system male CD-1 mice; conditions: male, CD-1, mouse, plasma, po, 10 mg/kg
ENDPOINT: AUC(0-t) (µM·h)

1) Nc1nc(Cl)cc(-c2nn(C(F)F)cc2Cc2ccccc2OCCN2CCOC[C@H]2CO)n1 [Compound 33]    410
